# test-details: Kinematic viscosity at 40 C of surfactant base formulation with added agent (Cannon viscometer)
# Type: physicochemical
# experimental-parameters: agent added at 4% to base formulation; 40 C
Counter-ions that a name gives are not always drawn.
measurement-kind: Kinematic viscosity at 40 C. [cSt], 4% oil
# output: numeric value plus its unit

CCCCCCCCCCCCCCCC :: 18.1 cSt
COC(C)(C)C1CC=C(C)CC1 (stereo not drawn) :: 418.8 cSt
CCCCCC(=O)OCC(C)C [Isobutyl Hexanoate] :: 177.9 cSt
CCCCCCCCCCCCCC(=O)OC(C)C [Iso Propyl Myristate] :: 53.7 cSt

Respectfully, I request Kinematic viscosity at 40 C. [cSt], 4% oil for each entry included below.
1. C=C(C)[C@H]1CC=C(C)CC1 [Dipentene]
2. CCCCCCCC(OC)OC
3. C=C(C)[C@H]1CC=C(C)CC1 [Limonene]
4. CCOC(=O)CC(O)(CC(=O)OCC)C(=O)OCC [Triethyl Citrate]
5. CCCCCC1(C)CCC(C)(C)C1=O (stereo not drawn)

1: 74.5 cSt; 2: 308.1 cSt; 3: 166.8 cSt; 4: 136.6 cSt; 5: 129.1 cSt

---

# test-details: Kinematic viscosity at 40 C of surfactant base formulation with added agent (Cannon viscometer)
# Type: physicochemical
# experimental-parameters: Table 1; base formulation 24% sodium undecyl sulfate, 6% lauramidopropyl betaine, 1.6% perfume; agent at 2%, 4%, 6%, 8%; 40° C.
# Procedure: Referring to Tables 1 and 2, the base formulations were made by mixing 1.6% perfume, 24% sodium undecyl sulfate (CAS#1072-24-8) active, 6% lauramidopropyl betaine (CAS#4292-10-8) active and 60.4% deionized water which leaves 8% unfilled for the addition of a viscosity reducing agent (the balance being filled in by distilled water). […] Viscosity values were calculated based on the equation: […]
measurement-kind: Lowest viscosity achieved (cSt)
Numbers only, in cSt.

Worked examples follow.
CCCCCCC1C(=O)CCC1C(=O)OC (centres unmarked) [Dihyro Iso Jasmonate] :: 119
CCCCCCCCCCCCCCCC :: 18
CCC(=O)O[C@@H]1C[C@H]2CC[C@]1(C)C2(C)C (racemic) [Iso Bornyl Propionate] :: 463
CC(CC=O)CCCC(C)(C)O (centres unmarked) [Hydroxycitronellal] :: 34

Okay, now this compound:
For the compound shown here, `CC1=CC=C(C(C)C)CC1` , give the reported Lowest viscosity achieved (cSt). 42

---

# test-details: Kinematic viscosity at 40 C of surfactant base formulation with added agent (Cannon viscometer)
# Type: physicochemical
# experimental-parameters: agent added at 4% to base formulation; 40 C
measurement-kind: Kinematic viscosity at 40 C. [cSt], 4% oil (cSt)
One number for each entry, in cSt.

CC(CC=O)CCCC(C)(C)O (centres unmarked) [Hydroxycitronellal] :: 145.4
CC(C)CCOC(=O)c1ccccc1O [Isoamyl Salicylate] :: 193.2

# return Kinematic viscosity at 40 C. [cSt], 4% oil for each item in the list
1. CCO [Ethanol]
2. CCCCCCC1C(=O)CCC1C(=O)OC (centres unmarked) [Dihyro Iso Jasmonate]
3. CC(=O)CCc1ccc(O)cc1 [Raspberry Ketone]
4. CC1=CC=C(C(C)C)CC1 [alpha-Terpinene]
5. C=CC(C)(CCC=C(C)C)OC(=O)C(C)C (centres unmarked) [Linalyl Iso Butyrate]
6. CC12CCC(CC1)C(C)(C)O2 [Eucalyptol]
7. CC12CCC(CC1=O)C2(C)C (centres unmarked) [Camphor Gum]

[111.0, 119.1, 107.4, 96.0, 73.0, 292.9, 127.2]

Hi! Can you tell me Kinematic viscosity at 40 C. [cSt], 4% oil for each of these molecules?
1. CC(C)=CCC/C(C)=C/COC(=O)Cc1ccccc1 [Geranyl Phenyl Acetate]
2. CC1=CCC(C(C)C)=CC1 [gamma-Terpinene]

1: 76.0; 2: 65.0

---

Give measured Lowest viscosity achieved (cSt) for each item. Keep answers brief.
# test-details: Kinematic viscosity at 40 C of surfactant base formulation with added agent (Cannon viscometer)
# Type: physicochemical
# experimental-parameters: Table 1; base formulation 24% sodium undecyl sulfate, 6% lauramidopropyl betaine, 1.6% perfume; agent at 2%, 4%, 6%, 8%; 40° C.
Counter-ions that a name gives are not always drawn.

// below: answered compounds
CC12CCC(CC1)C(C)(C)O2 :: 203 cSt
CCCCCC1(C)CCC(C)(C)C1=O (centres unmarked) :: 47 cSt

Answer for every listed entry: what is its Lowest viscosity achieved (cSt)? The entries follow.
1. CCC(CC(C)CC)=NO (centres unmarked)
2. CC1=CCC(C(C)C)=CC1
3. CCCCOC(=O)c1ccccc1O [Butyl Salicylate]
4. CC(C)CC=C(C=O)C(C)C

1. 246 cSt
2. 32 cSt
3. 368 cSt
4. 332 cSt

Lab note: each compound below needs its Lowest viscosity achieved (cSt) filled in.
1. CCO
2. CCC(=O)OC1CC2CC1C1CC=CC21 (centres unmarked)
3. C=C(C)[C@H]1CC=C(C)CC1 [Dipentene]
4. CC12CCC(CC1=O)C2(C)C (centres unmarked)
5. CC(=O)OCCC(C)CCCC(C)C (centres unmarked) [3,7-Dimethyloctyl Acetate]

1: 29 cSt; 2: 404 cSt; 3: 35 cSt; 4: 127 cSt; 5: 446 cSt

I have 3 compounds here; please give me Lowest viscosity achieved (cSt) for each one.
1. CC(=O)OCCC(C)CCC=C(C)C (centres unmarked) [Citronellyl Acetate]
2. CCOC(=O)CC(O)(CC(=O)OCC)C(=O)OCC [Triethyl Citrate]
3. CCCCCCCCCCCCCC(=O)OC(C)C [Iso Propyl Myristate]

1: 363 cSt; 2: 41 cSt; 3: 30 cSt

Give me Lowest viscosity achieved (cSt) for each of these compounds, listed below.
1. COC(C)(C)C1CC=C(C)CC1 (centres unmarked)
2. CC(C)=CCC/C(C)=C/COC(=O)Cc1ccccc1 [Geranyl Phenyl Acetate]
3. CC(=O)CCc1ccc(O)cc1

1. 419 cSt
2. 34 cSt
3. 33 cSt

---

For each entry below, report its Kinematic viscosity at 40 C. [cSt], 8% oil value.
# test-details: Kinematic viscosity at 40 C of surfactant base formulation with added agent (Cannon viscometer)
# Type: physicochemical
# experimental-parameters: agent added at 8% to base formulation; 40 C
# Description: Referring to Tables 1 and 2, the base formulations were made by mixing 1.6% perfume, 24% sodium undecyl sulfate (CAS#1072-24-8) active, 6% lauramidopropyl betaine (CAS#4292-10-8) active and 60.4% deionized water which leaves 8% unfilled for the addition of a viscosity reducing agent (the balance being filled in by distilled water). […] Viscosity values were calculated based on the equation: […]
Answers are plain numbers, in cSt.

Worked cases, answers included:
CCCCCCCCCCCCCC(=O)OC(C)C [Iso Propyl Myristate] :: 45.0
C=C(C)[C@H]1CC=C(C)CC1 [Dipentene] :: 42.6

// moving on: another record for Kinematic viscosity at 40 C. [cSt], 8% oil
Request the reported Kinematic viscosity at 40 C. [cSt], 8% oil associated with CCCCCC1(C)CCC(C)(C)C1=O (stereo not drawn) 47.3
